Target: TBK1 (Homo sapiens, UniProt Q9UHD2)
Construct: His-tag; made in house; host or cells: Sf9 insect cells
Sequence (Q9UHD2 whole entry): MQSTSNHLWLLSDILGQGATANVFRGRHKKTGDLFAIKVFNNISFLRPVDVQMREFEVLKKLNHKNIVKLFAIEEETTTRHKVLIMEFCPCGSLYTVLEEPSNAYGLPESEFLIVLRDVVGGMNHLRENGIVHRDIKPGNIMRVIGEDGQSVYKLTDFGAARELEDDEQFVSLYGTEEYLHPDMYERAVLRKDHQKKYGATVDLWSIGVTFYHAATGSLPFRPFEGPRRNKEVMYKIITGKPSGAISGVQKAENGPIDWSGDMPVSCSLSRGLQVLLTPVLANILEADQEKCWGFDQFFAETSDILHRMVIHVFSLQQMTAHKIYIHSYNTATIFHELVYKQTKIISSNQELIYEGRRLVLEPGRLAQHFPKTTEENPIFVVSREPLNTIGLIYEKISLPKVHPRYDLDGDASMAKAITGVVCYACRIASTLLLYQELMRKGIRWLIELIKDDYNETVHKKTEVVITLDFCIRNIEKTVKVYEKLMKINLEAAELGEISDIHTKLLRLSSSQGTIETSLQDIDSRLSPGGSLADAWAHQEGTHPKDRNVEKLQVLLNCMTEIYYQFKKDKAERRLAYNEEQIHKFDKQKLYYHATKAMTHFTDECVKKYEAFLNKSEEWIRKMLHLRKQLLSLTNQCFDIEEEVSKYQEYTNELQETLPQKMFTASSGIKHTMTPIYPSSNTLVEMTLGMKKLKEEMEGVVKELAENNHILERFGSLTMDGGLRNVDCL
Assay: In-vitro TBK1 kinase assay ([γ33]ATP filter-plate)
Format: biochemical
Conditions: text bins; read-out: IC50 for inhibition of the kinase activity of TBK1
Method: IKKε enzyme was produced as a His-tag fusion in Sf9 cells and used at a final concentration of […]. TBK1 enzyme was produced as a His-tag fusion in Sf9 cells and used at a final concentration of 0.1 μg/ml. […] After air drying, scintillant (PerkinElmer, Waltham, Mass.) was added and the plates were read on a PerkinElmer TopCount NXT instrument. […]
pIC50: −log10 of the molar value.
MEASURED_PARAMETER: pIC50

Use the examples below as a reference point.
# MOLECULE, pIC50
measured = [
    ("COc1cc(Nc2nccc(-c3ccc(OC4CCOCC4)c(C#N)c3)n2)ccc1C(=O)N1CCN(CCO)CC1", "> 8.00"),
    ("N#Cc1cc(-c2ccnc(Nc3ccc(N4CCOCC4)cc3)n2)ccc1OCC1CCCCO1 (centres unmarked)", "7.00 to 8.00"),
    ("COc1cc(Nc2nccc(-c3ccc(OC4CCOCC4)c(C#N)c3)n2)ccc1S(=O)(=O)N1CCN(C)CC1", "> 8.00"),
    ("N#Cc1cc(-c2ccnc(Nc3ccc(CN)cc3)n2)ccc1OC1CCOCC1", "> 8.00"),
]

Hi team, please reply with pIC50 for each item in this list.
1. CNCCCNS(=O)(=O)c1ccc(Nc2nccc(-c3ccc(OC4CCOCC4)c(C#N)c3)n2)cc1OC
2. COc1cc(C#N)cc(-c2ccnc(Nc3ccc(OC)c(OC)c3)n2)c1
3. N#Cc1cc(-c2ccnc(Nc3cccc(CS(=O)(=O)NCCO)c3)n2)ccc1OCC1CC1
4. COc1ccc(-c2ccnc(Nc3ccc(N4CCNC(=O)C4)cc3)n2)cc1C#N

[reply]
1. > 8.00
2. 7.00 to 8.00
3. > 8.00
4. 7.00 to 8.00

FYI, the data here is from patent US20150352108A1.
